Property: TGI; scope: individual compounds
tested on: RPMI-8226 leukemia; assay: NCI tumour cell line growth inhibition, 48 h

- COMPOUND: "O=[N+]([O-])c1ccc(NN=C2c3ccccc3Cc3ccccc32)c([N+](=O)[O-])c1"
  TGI: "> 100 µM"
- COMPOUND: "CCCCC1=CC1(C#N)[N+](=O)[O-] (stereo not drawn)"
  TGI: "> 100 µM"
- COMPOUND: "COC(=O)C1=C(C)N(NC(=O)c2cccc(Cl)c2)C(C)(O)C12CCOC2=O (stereo not drawn)"
  TGI: "> 100 µM"
- COMPOUND: "CC1OC(n2cc(I)c(=O)[nH]c2=O)C=CC1=O (stereo not drawn)"
  TGI: "38.7 µM"
- COMPOUND: "Cc1ccc(N=Nc2c(C)nn(C(=O)CC(=O)Nc3ccc(Cl)cc3)c2C)cc1C"
  TGI: "> 100 µM"
- COMPOUND: "CCN(CC)C(=O)N[C@@H](Cc1ccccc1)C(=O)NC"
  TGI: "> 100 µM"
- COMPOUND: "CCc1cccc(CC)c1NC(=O)c1ccn2c1CCc1cnc(Nc3ccc(N4CCN(C)CC4)cc3OC)nc1-2"
  TGI: "6.58 µM"
- COMPOUND: "O=C1C(Cl)=C(Nc2cccc(O)c2)C(=O)N1c1ccc(Cl)cc1Cl"
  TGI: "30.7 µM"

These data points were gathered from PubChem BioAssay (NCI).
